experiment: Induction of rat oligodendrocyte progenitor cells differentiation assessed as myelin basic protein expression level; format: functional
pEC50 listing for selected compounds.
pEC50 is defined as minus the log10 of a concentration measured in mol/L.

These recorded examples may help you get a feel for the data.
INSERT INTO measurements (sample_smiles, quantitative_readout) VALUES
  ('CN1c2cc(C(F)(F)F)ccc2CC12CCN(CC1CCOCC1)CC2', 8.72),
  ('CN1c2cc(C(F)(F)F)ccc2CC12CCN(CC1(O)CCOCC1)CC2', 8.24),
  ('FC(F)(F)c1ccc2c(c1)CC1(CCN(CC3CCOCC3)CC1)N2', 6.62);

Briefly, pEC50 measured for CC(=O)N1c2cc(C(F)(F)F)ccc2CC12CCN(CC1CCOCC1)CC2 : 7.22

Briefly, pEC50 measured for CN(C)C(=O)CN1c2cc(C(F)(F)F)ccc2CC12CCN(CC1CCOCC1)CC2 : 6.15

Briefly, pEC50 measured for CN1c2cc(F)ccc2CC12CCN(CC1CCOCC1)CC2 : 8.00

----------
experiment: Induction of rat oligodendrocyte progenitor cells differentiation assessed as myelin basic protein expression level; assay type: functional
assay metric: EC50

These recorded examples may help you get a feel for the data.
INSERT INTO results (sample_smiles, result) VALUES
  ('CN1c2cc(C(F)(F)F)ccc2C(=O)C12CCN(CC1CCOCC1)CC2', '1.4 nM'),
  ('COC1(CN2CCC3(CC2)Cc2ccc(C(F)(F)F)cc2N3C)CCOCC1', '54 nM'),
  ('CN1c2ccc(C(F)(F)F)cc2C(=O)C12CCN(CC1CCOCC1)CC2', '9.3 nM'),
  ('O=C1c2ccc(C(F)(F)F)cc2NC12CCN(CC1CCOCC1)CC2', '54 nM'),
  ('CC(C)(C)OC(=O)CN1c2cc(C(F)(F)F)ccc2CC12CCN(CC1CCOCC1)CC2', '15 nM');

Briefly, EC50 measured for FC(F)(F)c1ccc2c(c1)N(CC1CCOCC1)C1(CCN(CC3CCOCC3)CC1)C2 : 13 nM

Briefly, EC50 measured for O=C1c2cc(C(F)(F)F)ccc2NC12CCN(CC1CCOCC1)CC2 : 3.2 nM

Briefly, EC50 measured for CN1c2cc(C(F)(F)F)ccc2CC12CCN(CC1CCC(F)(F)CC1)CC2 : 4.7 nM

Briefly, EC50 measured for CN1c2cc(Cl)ccc2CC12CCN(CC1CCOCC1)CC2 : 19 nM

Briefly, EC50 measured for FC(F)(F)c1ccc2c(c1)N(Cc1ccccc1)C1(CCN(CC3CCOCC3)CC1)C2 : 3.7 nM

Briefly, EC50 measured for OCCN1c2cc(C(F)(F)F)ccc2CC12CCN(CC1CCOCC1)CC2 : 74 nM

Briefly, EC50 measured for COCCN1CCC2(CC1)Cc1ccc(C(F)(F)F)cc1N2C : 250 nM

Briefly, EC50 measured for COCCCN1CCC2(CC1)Cc1ccc(C(F)(F)F)cc1N2C : 240 nM

Briefly, EC50 measured for CN1c2ccc(C(F)(F)F)cc2CC12CCN(CC1CCOCC1)CC2 : 7100 nM
